test: in vivo; details: male, Sprague-Dawley, rat, po, 2.15 g/kg, t1/2
recorded_metric: half-life

Find the recorded half-life belonging to C=C[C@H]1[C@H](O[C@@H]2O[C@H](CO)[C@@H](O)[C@H](O)[C@H]2O)OC=C2C(=O)OCC[C@H]21 [Sweroside, sweroside] and report it.
7.39 h

###

Could you please report measured AUC(0-inf) for the items listed next?
assay: Pharmacokinetic study in rats after oral administration of SYD extract and its single and combined TCM extracts (UPLC-MS/MS of plasma); conditions: male, Sprague-Dawley, rat, plasma, po, 3.98 g/kg extract (8.33 g/kg as herbs), AUC(0–∞), rat plasma, oral SN + AS extract, n = 6
Numeric answer plus unit only.

Find the recorded AUC(0-inf) belonging to C[C@]1(OC(=O)/C=C/c2ccccc2)C[C@@H](O)[C@]2(O)C=CO[C@@H](O[C@@H]3O[C@H](CO)[C@@H](O)[C@H](O)[C@H]3O)[C@@H]21 [Harpagoside, harpagoside] and report it.
130 ng·h/mL

Thanks! And COc1ccc(CCO[C@@H]2O[C@H](CO[C@@H]3OC[C@H](O)[C@H](O)[C@H]3O)[C@@H](OC(=O)/C=C/c3ccc(O)c(OC)c3)[C@H](O[C@@H]3O[C@@H](C)[C@H](O)[C@@H](O)[C@H]3O)[C@H]2O)cc1O [Angoroside C, angoroside C] ?
460 ng·h/mL

###

experiment: Pharmacokinetic study in rats after oral administration of SYD extract and its single and combined TCM extracts (UPLC-MS/MS of plasma); details: male, Sprague-Dawley, rat, plasma, po, 2.14 g·kg^−1 (extract), t1/2, rat plasma, oral LJ + GU extract, n = 6
Could you please report measured half-life for the items listed next?
Unit h implied. Number only.

Find the recorded half-life belonging to O=C(/C=C/c1ccc(O)c(O)c1)O[C@@H]1C[C@](O)(C(=O)O)C[C@@H](O)[C@H]1O [Chlorogenic acid, chlorogenic acid] and report it.
8.15

Thanks! And COC(=O)C1=CO[C@@H](O[C@@H]2O[C@H](CO)[C@@H](O)[C@H](O)[C@H]2O)[C@@H]2[C@@H](C)[C@@H](O)C[C@H]12 [Loganin, loganin] ?
8.07

Thanks! And O=C1C[C@@H](c2ccc(O[C@@H]3O[C@H](CO)[C@@H](O)[C@H](O)[C@H]3O)cc2)Oc2cc(O)ccc21 [Liquiritin, liquiritin] ?
12.2

###

experiment: Pharmacokinetic study in rats after oral administration of SYD extract and its single and combined TCM extracts (UPLC-MS/MS of plasma); conditions: male, Sprague-Dawley, rat, plasma, po, 4.73 g/kg, AUC(0–t), rat plasma, oral LJ + SN + GU extract 4.73 g/kg, n = 6
recorded_metric: log10(AUC(0-t)) (log10 of the value in ng·h/mL)
In plain terms, each number is the log10 of measured AUC(0-t) in ng·h/mL.

Find the recorded log10(AUC(0-t)) belonging to C[C@]1(OC(=O)/C=C/c2ccccc2)C[C@@H](O)[C@]2(O)C=CO[C@@H](O[C@@H]3O[C@H](CO)[C@@H](O)[C@H](O)[C@H]3O)[C@@H]21 [Harpagoside, harpagoside] and report it.
2.18

Thanks! And O=C(/C=C/c1ccc(O)c(O)c1)O[C@@H]1C[C@](O)(C(=O)O)C[C@@H](O)[C@H]1O [Chlorogenic acid, chlorogenic acid] ?
3.34

Thanks! And O=C1C[C@@H](c2ccc(O[C@@H]3O[C@H](CO)[C@@H](O)[C@H](O)[C@H]3O)cc2)Oc2cc(O)ccc21 [Liquiritin, liquiritin] ?
2.36

Thanks! And COc1ccc(CCO[C@@H]2O[C@H](CO[C@@H]3OC[C@H](O)[C@H](O)[C@H]3O)[C@@H](OC(=O)/C=C/c3ccc(O)c(OC)c3)[C@H](O[C@@H]3O[C@@H](C)[C@H](O)[C@@H](O)[C@H]3O)[C@H]2O)cc1O [Angoroside C, angoroside C] ?
2.34

Thanks! And COC(=O)C1=CO[C@@H](O[C@@H]2O[C@H](CO)[C@@H](O)[C@H](O)[C@H]2O)[C@@H]2[C@@H](C)[C@@H](O)C[C@H]12 [Loganin, loganin] ?
3.26
